system: MDBK cells; test: Toxicity / cell cytotoxicity in MDBK cells; format: cell-based; conditions: N-alkyl DNJ at 10 μM

COMPOUND | UNIT NAME | % Viability at 10 μM
CCCCCCCCN1C[C@H](O)[C@@H](O)[C@H](O)[C@H]1CO | % | 70
CCCCCCN1C[C@H](O)[C@@H](O)[C@H](O)[C@H]1CO | % | 73
CCCCN1C[C@H](O)[C@@H](O)[C@H](O)[C@H]1CO [N-butyl DNJ, N-butyl deoxynojiricmycin, reference compound] | % | 74
CCCCCCCCCCCCN1C[C@H](O)[C@@H](O)[C@H](O)[C@H]1CO | % | 86
CCCCCCCCCN1C[C@H](O)[C@@H](O)[C@H](O)[C@H]1CO | % | 56
CCCCCCCCCCN1C[C@H](O)[C@@H](O)[C@H](O)[C@H]1CO | % | 73
